- target: NeutrAvidin (Gallus gallus, UniProt P02701)
- Construct: purchased Pierce
- Sequence (P02701 25-152): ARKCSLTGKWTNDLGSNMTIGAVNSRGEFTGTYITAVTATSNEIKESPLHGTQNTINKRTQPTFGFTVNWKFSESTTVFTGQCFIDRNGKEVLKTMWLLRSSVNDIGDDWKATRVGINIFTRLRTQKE
- measurement_description: HABA saturation of NeutrAvidin
- Assay type: binding
- condition_context: calculated value, supplementary material; read-out: dissociation constant of the HABA-NeutrAvidin complex
- Procedure: After 60 minutes, the absorbance of the complex was monitored at 500 nm. […] Best fit equations were calculated using KaleidaGraph (Synergy Software).
property_measured: pKd
// pKd here means minus log10 of the molar concentration (mol/L)

Bench note: what pKd did O=C(O)c1ccccc1N=Nc1ccc(O)cc1 [HABA, 4′-hydroxyazobenzene-2-carboxylic acid] show?
4.82
